# SYSTEM_UNDER_TEST: Ba/F3 EGFR-Del19/T790M (Homo sapiens, UniProt P00533, T790M, cells depend on it, form not given)
# Sequence (P00533 with tags, fused parts or gaps DEL746-750/T790M, form open): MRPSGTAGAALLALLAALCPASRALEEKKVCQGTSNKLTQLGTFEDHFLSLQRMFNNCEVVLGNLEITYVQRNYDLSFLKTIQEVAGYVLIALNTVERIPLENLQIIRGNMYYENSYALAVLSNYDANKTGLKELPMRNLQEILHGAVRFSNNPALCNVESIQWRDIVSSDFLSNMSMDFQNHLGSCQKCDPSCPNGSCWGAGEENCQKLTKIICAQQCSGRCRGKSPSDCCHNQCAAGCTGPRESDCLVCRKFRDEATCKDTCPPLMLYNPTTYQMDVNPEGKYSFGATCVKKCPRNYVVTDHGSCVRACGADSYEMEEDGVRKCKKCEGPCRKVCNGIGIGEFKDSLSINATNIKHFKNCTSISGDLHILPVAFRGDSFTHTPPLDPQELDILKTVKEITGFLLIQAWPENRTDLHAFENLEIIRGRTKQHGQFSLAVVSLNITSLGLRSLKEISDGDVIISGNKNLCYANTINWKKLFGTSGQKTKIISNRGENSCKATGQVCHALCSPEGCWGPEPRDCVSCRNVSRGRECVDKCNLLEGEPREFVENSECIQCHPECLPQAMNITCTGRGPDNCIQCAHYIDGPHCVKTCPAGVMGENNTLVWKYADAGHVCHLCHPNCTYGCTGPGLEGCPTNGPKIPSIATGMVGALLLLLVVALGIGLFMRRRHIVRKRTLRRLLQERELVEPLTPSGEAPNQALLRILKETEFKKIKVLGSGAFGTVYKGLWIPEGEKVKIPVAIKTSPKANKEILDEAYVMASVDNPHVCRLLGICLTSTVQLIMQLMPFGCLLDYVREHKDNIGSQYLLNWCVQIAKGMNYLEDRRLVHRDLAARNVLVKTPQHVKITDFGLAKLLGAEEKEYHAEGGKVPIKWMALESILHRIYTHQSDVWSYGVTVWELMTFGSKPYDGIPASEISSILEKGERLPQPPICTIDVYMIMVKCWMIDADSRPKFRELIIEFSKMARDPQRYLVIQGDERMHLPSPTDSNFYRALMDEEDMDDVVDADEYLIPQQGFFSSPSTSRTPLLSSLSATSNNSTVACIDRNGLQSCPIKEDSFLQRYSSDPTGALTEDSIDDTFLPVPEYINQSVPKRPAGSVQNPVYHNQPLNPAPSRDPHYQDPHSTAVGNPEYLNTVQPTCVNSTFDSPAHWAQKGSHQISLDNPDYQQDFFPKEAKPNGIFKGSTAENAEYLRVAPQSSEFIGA
# TEST_DESCRIPTION: Ba/F3 viability assay (CellTiter-Glo), DT
# Assay type: cell-based
# REPORTED_CONDITIONS: anti-proliferation, read-out: BaF3 DT IC50
# Source text: Inhibition of cell proliferation can be studied using Ba/F3 viability assays, including the Promega CellTiter-Glo cell viability assay. This assay can be used to study the effect of compounds described herein in the following assays: (1) Ba/F3 Parental; (2) Ba/F3 EGFR-Del19/T790M; (3); Ba/F3 EGFR-Del19/C797S; and (4) Ba/F3 EGFR-Del19/T790M/C797S.
ASSAY_READOUT: GI50

>  <COMPOUND>
C[C@H]1CCOc2c(cnn2C)-c2nccc(n2)Nc2cc3c(cn2)c(-c2cccc(N4CCC(N5CCN(C)CC5)CC4)c2)nn31 [(173)]

>  <REPORTED_MEASUREMENT>
< 10 nM

$$$$
>  <COMPOUND>
C[C@H]1CCOc2c(cnn2C)-c2nccc(n2)Nc2cc3c(cn2)c(-c2cccc(N4CC[C@@H](N(C)C)C4)c2)nn31 [(166)]

>  <REPORTED_MEASUREMENT>
< 10 nM

$$$$
>  <COMPOUND>
C[C@H]1CCOc2c(cnn2C)-c2nccc(n2)Nc2cc3c(cn2)c(N2CC[C@@H](N(C)C)C2)nn31 [(181)]

>  <REPORTED_MEASUREMENT>
10 to 100 nM

$$$$
>  <COMPOUND>
CC1CCCOc2c(cnn2C)-c2nccc(n2)Nc2cc3c(cn2)c(-c2cc(CN4CCN(C)CC4)nn2C)nn31 (stereo not shown) [(84)]

>  <REPORTED_MEASUREMENT>
10 to 100 nM

$$$$
>  <COMPOUND>
Cn1ncc2c1OCCC(C)(C)n1nc(N3CCC3)c3cnc(cc31)Nc1ccnc-2n1 [(4)]

>  <REPORTED_MEASUREMENT>
100 to 1000 nM

$$$$
>  <COMPOUND>
C[C@H]1CCOc2c(cnn2C)-c2nccc(n2)Nc2cc3c(cn2)c(-c2ccc(CN4CCCCC4)n2C)nn31 [(121)]

>  <REPORTED_MEASUREMENT>
< 10 nM

$$$$
>  <COMPOUND>
Cc1nc(-c2nn3c4cc(ncc24)Nc2ccnc(n2)-c2cnn(C)c2OCC[C@@H]3C)sc1CN1CCOCC1 [(174)]

>  <REPORTED_MEASUREMENT>
< 10 nM

$$$$
